Target: T1, CD27 expressed on the cell surface (HT1080_CD27 cells) (human, UniProt P26842 20-260); note: test concentration or dose not given here
T1 sequence (looked up): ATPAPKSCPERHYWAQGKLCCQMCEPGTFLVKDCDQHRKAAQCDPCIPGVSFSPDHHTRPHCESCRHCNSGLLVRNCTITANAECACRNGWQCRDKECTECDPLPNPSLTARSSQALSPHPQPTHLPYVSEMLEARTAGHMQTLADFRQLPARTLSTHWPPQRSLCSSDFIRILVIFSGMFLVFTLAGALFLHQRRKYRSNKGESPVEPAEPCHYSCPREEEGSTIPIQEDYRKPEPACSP
Experiment: cell-based or functional assay
Assignment: determine reported IL-8 [abs. corr.] for the given binders.
Reply numerically in abs. corr., unit not repeated.

Value lookup for IL-8 [abs. corr.]; key = P018.S.02.A.C06 (antibody, V domains shown, V regions on human Ig constant parts; also called AB27_32) VH: QEQLEESGGGLVQPEGSLTLTCKASGIDFSSNYYISWVRQAPGKGLEWIGCIYTGSDDAAYYASWAKGRFTISKTSSTTVTLQMTSLTAADTATYFCAREILYPTNTDSFDLWGPGTLVTVSS VL: AQVLTQTPSSVSEPVGGIVTINCQASESISSRLAWYQQKPGQPPKLLIYRAATLASGVPSRFKGSGSGTDFTLTISDLESADAATYYCQSYVGASSGGYFFGGGTEVVVK
0.418

Name the recorded IL-8 [abs. corr.] for P018.S.06.A.C03 (antibody, V domains shown, V regions on human Ig constant parts; also called AB27_101) VH: QSLEESGGGLFQPGGSLTLTCKASGLDFSTNYYMCWVRQAPGKGLELIACISTSSGNTWYASWAKGRFTISKTSSTTVTLQMTSLTAADTATYFCARCDIVYVGYGYASRLDLWGQGTLVTVSS VL: AQVLTQTPSPVSAAVGGTVTINCQASESVYNNNNLAWYQQKPGQPPKFLIYGASSLASGVPSRFKGSGSGTQFTLTISDLESDDAATYYCAGGGSTSVGAFGGGTEVVVK .
0.272

Need IL-8 [abs. corr.], item P018.S.09.A.E06 (antibody, V domains shown, V regions on human Ig constant parts; also called AB27_156) VH: QSVEESGGRLVTPGTPLTLTCTVSGFSLSSYGMIWVRQAPGKGLEWIAWSSSNDNTYYASWAKGRFTISKTSSTTVDLKMTSLTTEDTATYFCARNGVYSTGNYFDLWGQGTLVTVSS VL: AQVLTQTPSPVSAAVGGTVTINCQASQSVYNNNNLAWYQQKPGQPPKFLIYAASRLPSGVPPRFSGSGSGTQFTLTISDVQSDDAATYYCQGEFDCDSADCFAFGGGTEVVVK
1.23

For P018.S.06.A.B03 (antibody, V domains shown, V regions on human Ig constant parts; also called AB27_99) VH: QSVEESGGRLVTPGTPLTLTCTVSGFSLSSYDMIWVRQAPGKGLEWIGIIYLTDTTYYANWAKGRFTISKTSTTVDLKISSPTTEDTATYFCARHLDTSSGGFYFNLWGQGTLVTVSS VL: AQVLTQTPSSVSAAVGGTVTINCQASQSVYNSKILAWYQQKPGRPPKLLIYDASTLASGVPSRFKGSGSGTQFTLTISGVQSDDAATYFCQGEFTCTSADCIAFGGGTEVVVK , what is its reported IL-8 [abs. corr.]?
0.566

Fill in the blank: the reported IL-8 [abs. corr.] of P018.S.04.A.A05 (antibody, V domains shown, V regions on human Ig constant parts; also called AB27_65) VH: QSLEESGGRLVTPGTPLTLTCTASGFTISSYEMGWVRQAPGEGLEYIGWIASGGSTFYASWAKGRFTISRTSTTVDLTITDLRPSDTGTYFCARGYVEFKLWGPGTLVTVSS VL: DIVMTQTPASVSESVGGTVTIKCQASQSIGSYLSWYQQKPGQPPKVLIYRASTLESGVPSRFEGSGSGTQFTLTISDLESADAATYYCQGYHSTSGYVAFGGGTELVVK is ____.
1.67

Which IL-8 [abs. corr.] is listed for P018.S.03.A.A02 (antibody, V domains shown, V regions on human Ig constant parts; also called AB27_41) VH: QSVEESGGRLVTPGTPLTLTCTVSGFSLSSYDMTWVRQAPGEGLEWIGYINTDTTTYYASWAKGRFTISRTSTTVDLEITSPTTEDTATYFCARGNDPIYIDLWGQGTLVTVSS VL: AAVLTQTPSPVSAAVGGTVSISCQSSKSVINNNWLGWYQQKPGQPPKLLISYASTLASGVPSRFSGSGSGTQFTLTISDVQSDDAATYYCAGAYSPDSENAFGGGTEVVLK ?
0.651

Please look up its IL-8 [abs. corr.]: P018.S.08.A.G02 (antibody, V domains shown, V regions on human Ig constant parts; also called AB27_141) VH: QSVEESGGRLVTPGTPLTLTCTVSGFSLSTYAMSWVRQAPGKGLEWIGMNTRSGIIYYASWAKGRFTISKTSTTVHLKITSPTTEDTATYFCARDLYADVSGYYLGLWGPGTLVTVSS VL: AQVLTQTPSSVSAAVGGTVTINCQASQSLYNNKNLAWYQQKPGQPPKLLIYYASTLASGVSSRFKGSGSGTQFTLTISDLESDDAATYYCQGEFICSSADCVVFGGGTAVVVK
0.598

Give the measured IL-8 [abs. corr.] of P018.S.04.A.B03 (antibody, V domains shown, V regions on human Ig constant parts; also called AB27_67) VH: QSLEESGGRLVTPGTPLTLTCTASGFSLSSYDMSWVRQAPGKGLEWIGYIWSDGDTDYANWAIGRFTISKTSTTVDLKMTSPTTEDTATYFCARGYTNYDLWGQGTLVTVSS VL: AAVLTQTPSSVSAAVGGTVTISCQSSQSLYSDPYLSWHQQKPGQPPKRLIYQASTLASGVSSRFKGSGSGTEYTLTISDVQSDDAATYFCQGTYYSDGWYSDFGGGTEVVVK .
0.394

What measured IL-8 [abs. corr.] goes with P018.S.07.A.E05 (antibody, V domains shown, V regions on human Ig constant parts; also called AB27_126) VH: QSLEESGGRLVTPGGSLTLTCTVSGIDLSSYAMIWVRQAPGKGLEWIGYIYGGSGSTWYASWAKGRFTISKTSSTTVDLKMTSLTTEDTATYFCARAYDSGYIGNSFYIFDPWGPGTLVTVSS VL: DIVMTQTPASVSATVGGTVTIKCQASQSISSRLAWYQQKPGQPPKLLIYSASTLASGVSSRFRGSGSGTEFTLTISDLESADGATYYCAGYGGLGITAFGGGTEVVVK ?
0.055

Return reported IL-8 [abs. corr.]; argument: P018.S.07.A.E03 (antibody, V domains shown, V regions on human Ig constant parts; also called AB27_125) VH: QSLEESGGRLVTPGTPLTLTCTVSGIDLSSYAMGWVRQAPGKGLELIGLIYASDRTHYATWAKGRFTISKSSTTVDLKATSLTTEDTATYFCGRYGRGSGGYYYGMDLWGPGTLVTVSS VL: DVVMTQTPASVEAAVGGTVTIKCQASQSGDNYLSWYQQKSGQPPKLLIYLASTLASGVPSRFRGSRSGTEYTLTISDLESADAATYYCQNYCAGSGVCVGVAFGGGTEVVVK
0.123
